Test system: human malignant mesothelioma cell line JU77
test method notes: MTT cytotoxicity assay, 72 h, JU77
Assay type: cell-based
condition context: exposure time 72 h
Assignment: determine reported IC50 for the given compounds.
Answers are plain numbers, in nM.

Okay, here is my list. What is IC50 for each of these?
1. F[P-](F)(F)(F)(F)F.c1cc[c]2c(c1)Nc1cccc[n+]1[Au-]21[S]C(=[N+]2CCCCC2)[S]1 (stereo not shown)
2. CC[N+](=C1[S][Au-]2([S]1)[c]1ccccc1Nc1cccc[n+]12)c1ccccc1.F[P-](F)(F)(F)(F)F (stereo not shown)

Result:
1. 400
2. 440

Hi there! I need IC50 for each item below, if you can.
1. F[P-](F)(F)(F)(F)F.c1cc[c]2c(c1)-c1cccc[n+]1[Au-]21[S]C(=[N+]2CCCCCC2)[S]1 (stereo not shown)
2. F[P-](F)(F)(F)(F)F.c1cc[c]2c(c1)Cc1cccc[n+]1[Au-]21[S]C(=[N+]2CCCCC2)[S]1 (stereo not shown)

Result:
1: 220; 2: 2000
